- Test system: CTLL-2-bcl2 cells
- assay_procedure: Micronucleus test without metabolic activation in CTLL-2-bcl2 cells
- conditions: harvested at 15th hour
assay_endpoint: formation of micronuclei / micronucleated cell frequency (result in words)

query_smiles: CN1C(=O)CN=C(c2ccccc2)c2cc(Cl)ccc21
tested_target: CTLL-2-bcl2 cells
result: positive response

query_smiles: CN(N=O)C(N)=O
tested_target: CTLL-2-bcl2 cells
result: positive response

---

- System: CTLL-2 cells
- assay_procedure: Micronucleus test without metabolic activation in CTLL-2 cells
- conditions: CTLL-2 cells, harvested at 15th hour, without metabolic activation
assay_endpoint: formation of micronuclei / micronucleated cell frequency (result in words)

compound: CN(N=O)C(N)=O [MNU, N-methyl-N-nitrosourea]
result: positive response
--
compound: CN1C(=O)CN=C(c2ccccc2)c2cc(Cl)ccc21 [diazepam]
result: positive response

Taken from patent US6713261B1.
